Where these numbers come from: the RNAGym collection of RNA variant scans (doi:10.1126/science.aae0568)

B1: tRNA (parent)
chain: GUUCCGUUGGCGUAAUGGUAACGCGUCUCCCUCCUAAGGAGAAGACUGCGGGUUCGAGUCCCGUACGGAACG

# Variants of: B1
# experimental_protocol: yeast fitness relative to wild type (ratio to wild type); higher = fitter; tRNA-Arg(CCU), competitive growth, 37 C, YPD
Fewer inactive variants are shown than the library holds.
Quick rule: yeast fitness of at least 0.7 means 1 (yes), below that means 0 (no).

Check this variant for yeast fitness at or above 0.7: C33U A70U 1 (yes)

Could you verify whether the entry C4U G56A A70C shows yeast fitness of no less than 0.7? 1 (yes)

State whether the measured yeast fitness reaches 0.7, counting equality as reaching it, for C27U G38C A57U 0 (no)

Form field: yeast fitness at least 0.7? Entry: C30G C33G C60G A70C 0 (no)

I'd appreciate it if you could say whether C5A C24U C62U has yeast fitness at least equal to 0.7. 0 (no)

Given U3A C5A G6C A15G U16A C49G , state whether its yeast fitness is at least 0.7. 0 (no)

Does U19A C22U A37C G38C have a reported yeast fitness of at least 0.7? 0 (no)

Quick check: does G41A G44C C61G have yeast fitness greater than or equal to 0.7? 0 (no)

Please check the record A15G G58A G63A G68C and state if its yeast fitness is at or above 0.7. 0 (no)

Quick check, yeast fitness >= 0.7? C5G A15U G50A A69U 0 (no)

Threshold query (yeast fitness >= 0.7) on G9A G38A C62U 1 (yes)

Is yeast fitness at least 0.7? Consider C46G C61G A65C 0 (no)

// inclusive: yeast fitness at least 0.7? input: G17A U26C 1 (yes)

Form field: yeast fitness at least 0.7? Entry: C11G A14G G41A 0 (no)

Please check the record C30G U35A C61U C66G A69U and state if its yeast fitness is at or above 0.7. 0 (no)

Confirm if yeast fitness reported for the variant A20C C22U A43U is 0.7 or above. 0 (no)

State whether the measured yeast fitness reaches 0.7, counting equality as reaching it, for G58C C60A A65C 0 (no)

Reported yeast fitness at or above 0.7? U8C C29G U35G C61U 0 (no)

Check this variant for yeast fitness at or above 0.7: C24A G41A G44A U53A C66U 0 (no)

State whether the measured yeast fitness reaches 0.7, counting equality as reaching it, for U3C C46A G48A 1 (yes)
